molecular target: T1, His-tagged human CD38 (ACRO Biosystems cat #CD8-H5224) (human, UniProt P28907 43-300); test: SPR, captured scFv-Fc, His-CD38 analyte;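 note: SPR on a Carterra LSA, scFv-Fc captured by anti-human Fc on HC30M chip, His-tagged CD38 (human, mouse, cynomolgus) flowed as analyte in eight 1:2 steps from 400 nM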
T1 construct: bought recombinant protein with His tag
Lab note: anything with Kd below 90 nM is marked label 1; values at 90 nM or higher are marked label 0.

Answered cases to consult:
BINDER | CLASS NAME
40566p1.F8 (scFv, V domains shown, tested as scFv-Fc supernatant) VH: DVQLVESGGGVVRPGESLRLSCAASGFTFDNYDMTWVRQAPGEGLEWVSFISSRGTFAYYTDSVKGRFTISRDNSKNTLYLQMNSLRAEDTAIYYCTKDSGEYYFFDYWGLGTLVTVSS VL: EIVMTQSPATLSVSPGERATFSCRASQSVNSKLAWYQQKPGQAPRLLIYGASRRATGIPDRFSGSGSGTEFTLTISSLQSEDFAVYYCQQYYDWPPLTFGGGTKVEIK | label 0
40769p1.1.G12 (scFv, V domains shown, tested as scFv-Fc supernatant) VH: EVQLLESGGGLVQPGGSLRLSCAASGFTFDDYVMSWVRQAPGKGLEWVSEISESDGSNKYYADSVKGRFIISRDNSKNTLYLQMNSLRAEDTAVYYCARLEPEKYYGMDVWGQGTTVTVSS VL: QSVLTQPPSASGTPGQRVTISCSGSNSNIGNNLVSWYQQLPGTAPKLLIYRHDHRPSGVPDRFSGSKSGTSASLAISGLQSEDEADYYCATWDDSLNGRAFGGGTKLTVL | label 1
40596p1.D2 (scFv, V domains shown, tested as scFv-Fc supernatant) VH: EVQLLESGGGLVQPGGSLRLSCAASGFDFSKNAMSWVRQAPGKGLEYVAGSGWSGSFIFYADSVKGRSTVSRDNSENTLYLQMSSLRAEDTAVYYCAKNPGFGEMDVWGQGTTVTVSS VL: ELVLTQSPGSLFLSPGERATLTCRASQTIGSNLAWYQQKFGQAPRLLIYGASTRAADIPDRFSGSGSGTEFTLTISSLQSEDFAVYYCQQYNSWPPLTFGGGTKVEIK | label 1
40769p1.1.G10 (scFv, V domains shown, tested as scFv-Fc supernatant) VH: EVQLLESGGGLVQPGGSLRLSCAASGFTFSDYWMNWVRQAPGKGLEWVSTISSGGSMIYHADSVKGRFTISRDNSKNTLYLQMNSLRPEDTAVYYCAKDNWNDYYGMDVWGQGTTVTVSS VL: QSVLTQPPSASGTPGQRVNISCSGSSSNIRYNYVYWYQQVPGTAPKLLIYKDDQRPSGVPDRFSGSESGTSASLAISGLQSEDEADYYCATWDGSLNARVFGGGTKLTVL | label 1

Then there is this binder:
Query :: Say whether its Kd is strictly beneath 90 nM. Entry: 40769p1.1.H1 (scFv, V domains shown, tested as scFv-Fc supernatant) VH: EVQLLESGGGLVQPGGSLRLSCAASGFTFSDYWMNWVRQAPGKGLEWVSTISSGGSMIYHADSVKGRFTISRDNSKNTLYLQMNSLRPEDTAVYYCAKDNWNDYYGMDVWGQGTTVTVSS VL: QSVLTQPPSASGTPGQRVNISCSGSSSNIRYNYVYWYQQVPGTAPKLLIYKDDQRPSGVPDRFSGSKSGTSASLAISELQSEDEADYYCATWDGSLNARVFGGGTKLTVL
Result :: label 1

Provenance of the data: patent US20220306762A1
